From: patent US11578055B2

protocol_description: In Vitro Microsome Stability Assay (human)
Format: in vitro ADME
measurement_parameters: human liver microsomes, 30 min w/ NADPH
We begin with a simple list: items and their reported Liver Microsome Stability-% Left after 30 min w/ NADPH (%) Human.
measurement_type: Liver Microsome Stability-% Left after 30 min w/ NADPH (%) Human

                                   molecule  result
0  C[C@H]1CN(S(=O)(=O)c2cccc(N(C)C)c2)CCCN(CC2CCCCC2)CCCN(S(=O)(=O)N2CCc3cc(Cl)ccc3C2)C1 [A168]   25.7%
1  COc1cccc([C@@H]2CCCN(S(=O)(=O)N3CCCN(CC4CCCCC4)CCCN(S(=O)(=O)c4ccc(N(C)C)cc4)C[C@H](C)C3)C2)c1 [A209]   22.6%
2  C[C@@H]1CN(CC2CCCCC2)C[C@H](C)CN(S(=O)(=O)c2ccc(N(C)C)cc2)C[C@H](C)CN(S(=O)(=O)N2CCc3cc(Cl)ccc3C2)C1 [B16]   55.2%
3  COc1ccccc1[C@@H]1CCCN(S(=O)(=O)N2CCCN(CC3CCCCC3)CCCN(S(=O)(=O)c3ccc(N(C)C)cc3)C[C@H](C)C2)C1 [A210]   47.4%
4  COc1ccc([C@@H]2CCCN(S(=O)(=O)N3CCCN(CC4CCCCC4)CCCN(S(=O)(=O)c4ccc(N(C)C)cc4)C[C@H](C)C3)C2)cc1 [A208]   23.3%
5  Cc1cccc(CN2CCCN(S(=O)(=O)c3ccc(N(C)C)cc3)C[C@H](C)CN(S(=O)(=O)N3CCc4cc(Cl)ccc4C3)CCC2)c1 [A156]   81.3%
6  CN(C)c1ccc(S(=O)(=O)N2CCCN(CC3CCCCC3)CCCN(S(=O)(=O)N3CCCCC3)C2)cc1 [B4]   12.1%

* * *

We begin with a simple list: items and their reported Liver Microsome Stability-% Left after 30 min w/ NADPH (%) Monkey.
protocol_description: In Vitro Microsome Stability Assay (monkey)
Format: in vitro ADME
measurement_parameters: monkey liver microsomes, 30 min w/ NADPH
measurement_type: Liver Microsome Stability-% Left after 30 min w/ NADPH (%) Monkey

>>> print(df.to_string())
                            chemical_string  result
0  C[C@H]1CN(S(=O)(=O)c2ccc(N(C)C)cc2)CCCN(CC2CCCCC2)CCCN(S(=O)(=O)N2CCN(c3ccccc3C#N)CC2)C1   14.7%
1  CN(C)c1ccc(S(=O)(=O)NCCCN(CCCNS(=O)(=O)N2CCC(c3ccccc3)CC2)CC2CCCCC2)cc1   0.04%
2  CN(C)c1ccc(S(=O)(=O)N2C/C=C\CN(S(=O)(=O)N3CCC(c4ccccc4)CC3)CCCN(CC3CCCCC3)CCC2)cc1   15.5%
3  C[C@H]1CN(S(=O)(=O)c2ccc(N(C)C)cc2)CCCN(CC2CCCCC2)CCCN(S(=O)(=O)N2CCN(c3ccccc3Cl)CC2)C1   65.1%
4  CCc1ccc2c(c1)CCN(S(=O)(=O)N1CCCN(CC3CCCCC3)CCCN(S(=O)(=O)c3ccc(N(C)C)cc3)C[C@H](C)C1)C2   23.2%
5  C[C@H]1CN(S(=O)(=O)c2ccc(N(C)C)cc2)CCCN(CC2CCCCC2)CCCN(S(=O)(=O)N2CCN(c3ccc(F)cc3Cl)CC2)C1     65%
6  CC(C)CCN1CCCN(S(=O)(=O)c2ccc(N(C)C)cc2)C[C@H](C)CN(S(=O)(=O)N2CCc3cc(Cl)ccc3C2)CCC1   3.47%

* * *

protocol_description: In Vitro Microsome Stability Assay (mouse)
Type: in vitro ADME
measurement_parameters: mouse liver microsomes, 30 min w/ NADPH
measurement_type: Liver Microsome Stability-% Left after 30 min w/ NADPH (%) Mouse

                            chemical_string  quantitative_readout
0  CN(C)c1ccc(S(=O)(=O)N2CCCN(CC3CCCCC3)CCCN(S(=O)(=O)N3CCc4cc(Cl)ccc4C3)C[C@H]3CC[C@@H]32)cc1                  8.31
1  C[C@H]1CN(S(=O)(=O)c2ccc(N(C)C)cc2)CCCN(CC2CCCCC2)CCCN(S(=O)(=O)N2CCN(C(=O)OC(C)(C)C)CC2)C1                  0.87
2  C[C@@H]1CCN(S(=O)(=O)c2ccc(N(C)C)cc2)CCCN(CC2CCCCC2)CCCN1S(=O)(=O)N1CCc2cc(Cl)ccc2C1                  1.59
3  CN(C)c1ccc(S(=O)(=O)NCCCN(CCCNS(=O)(=O)N2CCC(c3ccccc3)CC2)CC2CCCCC2)cc1                  1.47
4  COc1cc(F)ccc1N1CCN(S(=O)(=O)N2CCCN(CC3CCCCC3)CCCN(S(=O)(=O)c3ccc(N(C)C)cc3)C[C@H](C)C2)CC1                    28
5  CC(C)CN1CCCN(S(=O)(=O)c2ccc(N(C)C)cc2)C[C@H](C)CN(S(=O)(=O)N2CCc3cc(Cl)ccc3C2)CCC1                  5.06
6  C[C@H]1CN(S(=O)(=O)c2ccc(N(C)C)cc2)CCCN(C(=O)OCc2ccccc2)CCCN(S(=O)(=O)N2CCc3cc(Cl)ccc3C2)C1                  42.2

* * *

protocol_description: In Vitro Microsome Stability Assay (monkey)
Type: in vitro ADME
measurement_parameters: monkey liver microsomes, 30 min w/ NADPH
Each record is given Met if its reported Liver Microsome Stability-% Left after 30 min w/ NADPH (%) Monkey is strictly below 30%. Records at or above 30% are given Not met.

>>> df
                             chemical_string    class
 0  C[C@H]1CCN(S(=O)(=O)N2CCc3cc(Cl)ccc3C2)CCCN(CC2CCCCC2)CCCN1S(=O)(=O)c1ccc(N(C)C)cc1      Met
 1  C[C@@H]1CCN(S(=O)(=O)c2ccc(N(C)C)cc2)CCCN(CC2CCCCC2)CCCN1S(=O)(=O)N1CCc2cc(Cl)ccc2C1      Met
 2  Cc1ccccc1CN1CCCN(S(=O)(=O)c2ccc(N(C)C)cc2)C[C@H](C)CN(S(=O)(=O)N2CCc3cc(Cl)ccc3C2)CCC1  Not met
 3  COc1cccc2c1CCN(S(=O)(=O)N1CCCN(CC3CCCCC3)CCCN(S(=O)(=O)c3ccc(N(C)C)cc3)C[C@H](C)C1)C2      Met
 4  C[C@@H]1CN(CC2CCCCC2)C[C@@H](C)CN(S(=O)(=O)N2CCc3cc(Cl)ccc3C2)C[C@@H](C)CN(S(=O)(=O)c2ccc(N(C)C)cc2)C1  Not met
 5  CN(C)c1ccc(S(=O)(=O)N2CCCN(CC3CCCCC3)CCCN(S(=O)(=O)N3CCC(c4ccccc4)CC3)CC(=O)C2)cc1      Met
 6  CN(C)c1ccc(S(=O)(=O)N2CCCN(CC3CCCCC3)CCCN(S(=O)(=O)N3CCCCC3)CC2)cc1      Met
 7  Cc1cccc2c1CCN(S(=O)(=O)N1CCCN(CC3CCCCC3)CCCN(S(=O)(=O)c3ccc(N(C)C)cc3)C[C@H](C)C1)C2      Met
 8  COc1c(N2CCN(S(=O)(=O)N3CCCN(CC4CCCCC4)CCCN(S(=O)(=O)c4ccc(N(C)C)cc4)C[C@H](C)C3)CC2)ccc(F)c1F      Met
 9  C[C@H]1CN(S(=O)(=O)c2ccc(N(C)C)cc2)CCCN(Cc2ccon2)CCCN(S(=O)(=O)N2CCc3cc(Cl)ccc3C2)C1      Met
10  COc1ccccc1[C@@H]1CCCN(S(=O)(=O)N2CCCN(CC3CCCCC3)CCCN(S(=O)(=O)c3ccc(N(C)C)cc3)C[C@H](C)C2)C1  Not met
11  COCCN1CCCN(S(=O)(=O)c2ccc(N(C)C)cc2)C[C@H](C)CN(S(=O)(=O)N2CCc3cc(Cl)ccc3C2)CCC1      Met

* * *

protocol_description: In Vitro Microsome Stability Assay (human)
Type: in vitro ADME
measurement_parameters: human, 30 min, NADPH
Structures can show the parent of a compound that is named as a salt.
We begin with a simple list: items and their reported Liver Microsome Stability-% Left after 30 min w/ NADPH (%) Human.
measurement_type: Liver Microsome Stability-% Left after 30 min w/ NADPH (%) Human

>>> print(df.to_string())
                                    compound  result
 0  C=C1CN(S(=O)(=O)c2ccc(N(C)C)cc2F)CCCN(CC2CCCCC2)CCCN(S(=O)(=O)N2CCc3cc(Cl)ccc3C2)C1   44.5%
 1  Cc1cc(N(C)C)ccc1S(=O)(=O)N1CCCN(CC2CCCCC2)CCCN(S(=O)(=O)N2CCCCC2)CC2(CC2)C1   0.12%
 2  C=C1CN(S(=O)(=O)c2ccc(N(C)C)cc2)CCCN(CC2CCCCC2)CCCN(S(=O)(=O)N2CCC(C3CCCCC3)CC2)C1   53.1%
 3  CN(C)c1ccc(S(=O)(=O)N2CCCN(CC3CCCCC3)CCCN(S(=O)(=O)N3CCC(c4ccccc4)CC3)CC(O)C2)cc1 (centres unmarked)   4.87%
 4  C=C1CN(S(=O)(=O)c2ccc(C)cc2)CCCN(CC2CCOCC2)CCCN(S(=O)(=O)c2ccc(N(C)C)cc2)C1   0.09%
 5  COC1CN(S(=O)(=O)c2ccc(N(C)C)cc2)CCCN(CC2CCCCC2)CCCN(S(=O)(=O)N2CCC(c3ccccc3)CC2)C1 (centres unmarked)   13.3%
 6  C=C1CN(S(=O)(=O)c2ccc(N(C)C)cc2)CCCN(CC2CCCCC2)CCCN(S(=O)(=O)N2CCN(c3ccccc3)[C@H](C)C2)C1   6.12%
 7  C=C1CN(S(=O)(=O)c2ccc(N(C)C)cc2)CCCN(CC2CCCCC2)CCCN(S(=O)(=O)N2CC=C(C3=CCCCC3)CC2)C1   50.5%
 8  C=C1CN(S(=O)(=O)c2ccc(N(C)C)cc2)CCCN(CC2CCCCC2)CCCN(S(=O)(=O)N2CCc3cc(Cl)ccc3C2)C1     38%
 9  C[C@H]1CN(S(=O)(=O)c2ccc(N(C)C)cc2)CCCN(CC2CCCCC2)CCCN(S(=O)(=O)N2CC[C@H](c3ccccc3)C2)C1   23.7%
10  C=C1CN(S(=O)(=O)c2ccc(N(C)C)cc2)CCCN(CC2CCCCC2)CCCN(S(=O)(=O)N2CCN(c3ccccc3)[C@@H](C)C2)C1   12.6%
11  CN(C)c1ccc(S(=O)(=O)N2CCCN(CC3CCCCC3)CCCN(S(=O)(=O)N3CCCCCC3)CC3(CC3)C2)cc1   0.12%
12  C=C1CN(S(=O)(=O)c2ccc(C)cc2)CCCN(CC2CCC(C)(C)CC2)CCCN(S(=O)(=O)c2ccc(N(C)C)cc2)C1 [A10, hydrochloride]   0.77%
13  C=C1CN(S(=O)(=O)c2ccc(N(C)C)cc2)CCCN(CC2CCCCC2)CCCN(S(=O)(=O)N2CCC(C3CCOCC3)CC2)C1    0.2%
